# credit: PubChem BioAssay

- assay.explanation: growth suppression of yeast trafficking mutant, preliminary HTS, modulators of trafficking downstream of Golgi apparatus project, 1536-format plate, OD 615 nm (AID 637)
- particulars: yeast transport mutant growth, absorbance 615 nm, 18 h; stronger effect = higher value
Form field: inhibition (one value per entry).
Field format: number, assumed %, no unit text.

Cc1ccc2cc(CN(Cc3ccc4c(c3)OCO4)Cc3nnnn3Cc3ccco3)c(=O)[nH]c2c1C : -3.17
C=CCn1cc(C(=O)NCCOC)c(=O)c2cc(S(=O)(=O)N(CC)CC)ccc21 : -2.73
O=C(CCc1ccccc1)Nc1ccncc1 : -5.33
CCn1c(SCC(=O)NCc2ccco2)nc2c(c1=O)SC(C)C2 (stereo unspecified) : -0.98
CN(CCc1ccccn1)C(=O)CCNC(=O)Cn1cnc2ccccc2c1=O : -1.9

Moving on to another compound below.
# compound `CCN(CC)C(=O)Cn1c(=O)n(Cc2ccccc2Cl)c2c1c(=O)n(C)c(=O)n2C` ; its inhibition = -4.13

====

- assay.explanation: Restrictive medium S. cerevisiae growth inhibition, OD615, pilot screen of yeast lifespan reduction project, restrictive growth control (AID 706);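 also: modified DeaD lifespan yeast strain shifted to restrictive glucose medium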
- particulars: OD615, 48 h, at 10 µM, stronger effect = higher value
Activity calls are given as the source filed them.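 The calls were made as follows: active = growth inhibition above a set limit, 3 SD over mean compound inhibition, in both replicates (cut at about 43% in these data); inconclusive = above the limit in only one replicate; inactive = at or below the limit in both replicates.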
measurement.type: growth inhibition

Cc1nnc(SCc2ccc(Cl)cc2Cl)[nH]c1=O : 1.19% (inactive)
COc1ccc2c(Cl)c(C(=O)NC3CCS(=O)(=O)C3)sc2c1 (stereo unspecified) : -6.69% (inactive)
Cn1nc(-c2ccc(Cl)cc2)c2cc(C(=O)NCCN3CCOCC3)sc21 : -5.2% (inactive)
O=C(CNC(=O)Cn1ccc2ccccc2c1=O)NCCCN1CCN(c2cccc(Cl)c2)CC1 : -5.33% (inactive)
CN(C)/C=N/c1c(C#N)cnn1-c1ccccc1 : -14.5% (inactive)
C=CCNc1nc2c(c(=O)[nH]c(=O)n2C)n1Cc1cccc(C)c1 : 2.92% (inactive)
CCN1CCN(CCCNC(=O)c2ccc3c(c2)NC(=O)c2ccccc2S3)CC1 : -14.5% (inactive)
O=C(NCC(c1cccs1)N1CCOCC1)c1cc2ccccc2o1 (stereo unspecified) : -15.1% (inactive)
O=C(CN1C(=O)c2ccccc2S1(=O)=O)N1CCN(c2ccccc2F)CC1 : 5.53% (inactive)
Cc1ccccc1-n1c(=O)cc(N2CCCCCC2)[nH]c1=O : -0.93% (inactive)

# compound `COc1ccc(S(=O)(=O)Cc2ccc(C(=O)NCc3ccco3)o2)cc1` ; its growth inhibition = -11.6% (inactive)

====

- assay.explanation: HUVEC growth inhibition – cell-based, human, primary screen (AID 575);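 also: 100% = median of untreated cell wells with 0.1% DMSO on each plate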
- particulars: HUVEC proliferation, CellTiter-Glo luminescence, 72 h; at 10 µM; stronger effect = lower value
measurement.type: viability (%)
Field format: number, assumed %, no unit text.

CCOc1cc(N2CCOCC2)c(OCC)cc1NC(=O)CSc1cccc[n+]1[O-] : 94
O=C(NC(C(=O)c1ccccc1)n1ccc(=O)[nH]c1=O)c1ccccc1 (configuration not stated) : 98.8
Cc1cc(C)nc(NS(=O)(=O)c2ccc(N)cc2)n1 : 83.1

# compound `CCN(Cc1cc2cc(OC)ccc2[nH]c1=O)C(=O)Cc1ccc(OC)cc1` ; its viability = 96.5

# compound `CC1(C)S[C@@H]2[C@H](NC(=O)Cc3ccccc3)C(=O)N2[C@H]1C(=O)O` ; its viability = 95.4

# compound `CCOC(=O)N1CCN(C(=O)CSc2cc(C)nc3c(-c4ccccc4OC)c(C)nn23)CC1` ; its viability = 94

# compound CN(C)CCOC(C)(c1ccccc1)c1ccccn1 (configuration not stated) ; its viability = 113

# compound `Cc1ccc(Cl)cc1NC(=O)CSc1nnc(C)n1-c1ccccc1` ; its viability = 91

# compound `CC(C)COC(=O)N(C)c1ccc(C(O)(C(F)(F)F)C(F)(F)F)cc1` ; its viability = 93.1

# compound CCOC(=O)c1cc(C)sc1N1C(=O)C2C3C=CC(C3)C2C1=O (configuration not stated) ; its viability = 109

# compound `CCn1c(C(=O)OC)cc2c1ccn2-c1ccc(F)cc1` ; its viability = 86.1

====

Form field: viability (one value per entry).
- assay.explanation: reversal of MRP1-mediated doxorubicin resistance, pilot screen, H69AR cells, doxorubicin co-treatment (AID 601)
- particulars: H69AR cells, CellTiter-Glo, 72 h; compound alone cytotoxicity; at 10 µM
Field format: number, assumed %, no unit text.

Sample answers from the record:
O=C(O)COc1ccc(Oc2ccccc2)cc1 : 109
O=C(CCS(=O)(=O)c1cc(Br)cc2c1N(C(=O)C1CC1)CC2)NCC1CCCO1 (centres undefined) : 81.8
CC1(C)CC(=O)C(C(=O)CCCCC(=O)C2C(=O)CC(C)(C)CC2=O)C(=O)C1 : 95.1
COc1ccc(-c2cc(C(=O)N3CCN(Cc4ccccc4)CC3)no2)cc1OC : 98.5
CC(C)(C)NC[C@H](O)COc1nsnc1N1CCOCC1 : 106

# compound Cn1c(=O)c2[nH]c(NCC3CCCO3)nc2n(-c2ccccc2)c1=O (centres undefined) ; its viability = 102

# compound `CCn1c(C(=O)OC)cc2c1ccn2-c1ccc(F)cc1` ; its viability = 83

# compound `CCOC(=O)c1c(C)oc2ccc(OCC(=O)N(CC)CC)cc12` ; its viability = 101

# compound O=C(Nc1ccc2c(c1)OCCO2)C1CCCN(S(=O)(=O)c2cnc[nH]2)C1 (centres undefined) ; its viability = 94.7

====

Form field: differential viability (reversal) (one value per entry).
- assay.explanation: reversal of MRP1-mediated doxorubicin resistance, pilot screen, H69AR cells, doxorubicin co-treatment (AID 601)
- particulars: H69AR cells + 2 uM doxorubicin, CellTiter-Glo, 72 h; at 10 µM; stronger effect = higher value
Field format: number, assumed %, no unit text.

Sample answers from the record:
CCOC(=O)c1c(C)[nH]c(C=Nc2ccccc2)c1O : 10.2
O=C(CSc1nnc(CNC(=O)c2cccs2)o1)NCCc1ccccc1 : 2.05
CN(C)S(=O)(=O)c1ccc(/C(O)=C2/C(=O)C(=O)N(CCN3CCCCC3)C2c2cccnc2)cc1 (centres undefined) : -3.39
O=C(CS(=O)(=O)Cc1ccccc1)N1CCc2ccccc2C1 : 11.5
CC(=O)Oc1ccc(CCC(C)OC(C)=O)cc1 (centres undefined) : 2.78

# compound `Cc1cc(=O)n(C)c(=O)n1CCCNc1ccccc1` ; its differential viability (reversal) = 11.4

# compound `CC(=O)Nc1ccc(S(=O)(=O)NCc2cn3c(C)csc3n2)cc1` ; its differential viability (reversal) = 20.4

# compound `CC1CCN(Cc2ccc(-c3nn[nH]n3)cc2)CC1` ; its differential viability (reversal) = 0.33

# compound `Nc1cc(C(=O)O)ccc1Nc1ccc(F)c(F)c1` ; its differential viability (reversal) = 10.3

# compound `CC(C)CNS(=O)(=O)c1ccc(OCC(=O)Nc2ccc3c(c2)OCO3)c(Cl)c1` ; its differential viability (reversal) = -2.31

# compound `O=C(CSc1nnc2sc3ccccc3n12)c1ccco1` ; its differential viability (reversal) = 16.9

# compound `Nc1nc2sc3c(c2c(=O)s1)CCCC3` ; its differential viability (reversal) = -3.39

# compound COc1cccc(C(c2nnnn2CCc2ccccc2)N2CCN(c3ccccc3)CC2)c1OC (centres undefined) ; its differential viability (reversal) = -7.96

# compound N#CC1=C(SCC(=O)c2cc3ccccc3oc2=O)NC(=O)C(C#N)C12CCCC2 (centres undefined) ; its differential viability (reversal) = 6.35

# compound `O=C(CNC1CCCCCC1)Nc1ccc(S(=O)(=O)NC2CC2)cc1` ; its differential viability (reversal) = 5.79

====

Form field: inhibition (one value per entry).
- assay.explanation: inhibitors of the yeast RAM network, pilot screen, dse1pr::URA3 reporter, 5-FOA selection (AID 869);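 also: 0% = DMSO wells with no growth and 100% = 10 µM 1-NA-PP1 with full growth; RAM network block rescues cells from 5-FOA so hits raise OD615 growth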
- particulars: S. cerevisiae dse1pr::URA3 5-FOA growth, OD615, 2 d; at 10 µM; stronger effect = higher value; strain carries analog-sensitive mutant Cbk1 kinase
Field format: number, assumed %, no unit text.

Sample answers from the record:
CC(C)N(CCCNC(=O)CC1Oc2ccccc2NC1=O)Cc1ccccc1 (stereo unspecified) : 0.47
CCn1c(C2CC(=O)N(c3ccc(C)c(C)c3)C2)nc2ccccc21 (stereo unspecified) : -0.35

# compound Cc1c(C(=O)NCC2CCCO2)oc2ccc(S(=O)(=O)N3CCCC3)cc12 (stereo unspecified) ; its inhibition = 2

# compound `CC(C)N(C(=O)COc1ccc(Br)cc1Cl)C(C)C` ; its inhibition = 1.12

# compound `CN(C)S(=O)(=O)c1ccc(S(=O)(=O)N2CCN(CCC#N)CC2)cc1` ; its inhibition = 0.005

# compound `CCOC(=O)c1[nH]c2ccccc2c1NC(=O)c1ccc2c(c1)OCO2` ; its inhibition = 1.8

# compound `CN(C(=O)c1ccc(NC(=O)c2cnccn2)cc1)C1CCCCC1` ; its inhibition = 0.62

# compound `COc1ccccc1S(=O)(=O)Cc1ccc(C(=O)NCc2ccc3c(c2)OCO3)o1` ; its inhibition = 1.9

# compound CCOCCCNC(=O)C1CCC(CNS(=O)(=O)c2ccc(F)cc2)CC1 (stereo unspecified) ; its inhibition = 1.19

# compound `O=C(Cn1nc(Cc2cccnc2)c2ccccc2c1=O)N1CCN(C(=O)c2ccco2)CC1` ; its inhibition = 0.64

# compound `Cc1ccc(-c2noc(CSc3nnnn3-c3ccccc3)n2)cc1` ; its inhibition = 1.95

# compound `CCOc1ccccc1NC(=O)CSc1ccccc1` ; its inhibition = 0.255

# compound `CCn1c(COc2cccc3cccnc23)nnc1SCC(=O)O` ; its inhibition = 2.12

# compound `O=C(NCc1ccccc1)c1ccc(CN2CCOCC2)cc1` ; its inhibition = 0.89
